# targetEntity: histamine (H1) receptor (Cavia porcellus)
# Construct: isolated smooth muscle of the guinea-pig ileum; from tissue; host or cells: isolated ileum segments of Dunkin Hartley guinea-pigs
# Sequence (P31389 whole entry): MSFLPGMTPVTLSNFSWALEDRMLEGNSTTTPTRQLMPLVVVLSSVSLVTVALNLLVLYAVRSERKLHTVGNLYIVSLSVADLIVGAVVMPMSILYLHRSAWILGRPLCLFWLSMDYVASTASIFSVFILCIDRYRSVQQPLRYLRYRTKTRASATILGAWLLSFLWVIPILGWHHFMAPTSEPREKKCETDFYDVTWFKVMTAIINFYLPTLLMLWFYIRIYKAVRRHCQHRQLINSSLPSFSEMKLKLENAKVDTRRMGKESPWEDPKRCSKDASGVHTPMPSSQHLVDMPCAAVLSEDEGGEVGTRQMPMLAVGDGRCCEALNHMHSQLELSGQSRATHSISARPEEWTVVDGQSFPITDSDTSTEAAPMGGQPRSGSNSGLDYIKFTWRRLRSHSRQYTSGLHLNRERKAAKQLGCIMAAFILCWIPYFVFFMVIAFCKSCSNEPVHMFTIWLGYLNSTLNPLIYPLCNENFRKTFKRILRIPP
# testProtocol: Antihistamine (H1) effect: inhibition of histamine-induced contractions of isolated guinea-pig ileum in vitro
# Type: cell-based, guinea-pig (Dunkin Hartley)
# conditionDescription: histamine 5 × 10^-6 mol/l, test substance 10^-6 mol/l, after 10 min. (after washing); read-out: in vitro (H1) receptor antagonism % inhibitory effect on histamine-induced contractions of the Ileum, after 10 min.
assayEndpoint: inhibition at 1 µM (%)
Note: unit % is implicit; provide only the numeric part.

Given CCCCC1CCc2cc(O)cc3c(CCN4CCN(c5cc(C)ccn5)CC4)c(C)n1c23 (stereo not shown) , respond with its inhibition at 1 µM. 67

Give the reported inhibition at 1 µM for this molecule. C=CCCC1CCc2cccc3c(CCN4CCN(c5cc(C)ccn5)CC4)c(C)n1c23 (stereo not shown) 72

For the molecule Cc1ccnc(N2CCN(CCc3c(C)n4c5c(ccc(C(O)C(C)C)c35)SCC4)CC2)c1 (stereo not shown) , give its reported inhibition at 1 µM. 88

Supply measured inhibition at 1 µM of Cc1ccnc(N2CCN(CCc3c(C)n4c5c(cc(N)cc35)CCC4)CC2)c1 in your reply. 77

* * *

Hi there, I'd appreciate the recorded inhibition at 1 µM for every entry that follows.
# targetEntity: histamine (H1) receptor (Cavia porcellus)
# Construct: isolated smooth muscle of the guinea-pig ileum; from tissue; host or cells: isolated ileum segments of Dunkin Hartley guinea-pigs
# testProtocol: Antihistamine (H1) effect: inhibition of histamine-induced contractions of isolated guinea-pig ileum in vitro
# Format: cell-based, guinea-pig (Dunkin Hartley)
# conditionDescription: histamine 5 × 10^-6 mol/l, test substance 10^-6 mol/l, after 30 sec.; read-out: in vitro (H1) receptor antagonism % inhibitory effect on histamine-induced contractions of the Ileum, after 30 sec.
Enter your answer as a number in %; do not include the unit.

State its inhibition at 1 µM for this compound: Cc1ccnc(N2CCN(CCc3c(C)n4c5c(cccc35)CC4C)CC2)c1 (centres unmarked) 45

Supply measured inhibition at 1 µM of Cc1ccnc(N2CCN(CCc3c(C)n4c5c(cc(C(O)C(C)C)cc35)CCC4)CC2)c1 (centres unmarked) in your reply. 26

Let me know recorded inhibition at 1 µM for Cc1ccnc(N2CCN(CCc3c(C)n4c5c(cccc35)CCC4)CC2)c1 , thanks. 42

Note down inhibition at 1 µM recorded for CSc1cc2c3c(c1)c(CCN1CCN(c4cc(C)ccn4)CC1)c(C)n3CCS2 12

Quote inhibition at 1 µM reported for Cc1ccnc(N2CCN(CCc3c(C)n4c5c(cc(Br)cc35)CCC4)CC2)c1 please. 10

Please look at this compound and report its inhibition at 1 µM: Cc1ccnc(N2CCN(CCc3c(C)n4c5c(cc(NC(=O)c6ccccc6)cc35)CCC4)CC2)c1 10

Return value of inhibition at 1 µM for input CC(=O)Oc1cc2c3c(c1)c(CCN1CCN(c4cc(C)ccn4)CC1)c(C)n3CCC2 , no commentary. 81

Quick one: give measured inhibition at 1 µM for Cc1ccc(N2CCN(CCc3c(C)n4c5c(cc(C(=O)C(C)C)cc35)CCC4)CC2)nc1 10

Give me measured inhibition at 1 µM, please, for this compound: Cc1ccnc(N2CCN(CCc3c(C)n4c5c(ccc(C(O)C(C)C)c35)SCC4)CC2)c1 (centres unmarked) 19

Supply inhibition at 1 µM value. Item: Cc1ccnc(N2CCN(CCc3c(C)n4c5c(cccc35)C(C)CC4)CC2)c1 (centres unmarked) 20

Give recorded inhibition at 1 µM. CCCCC1CCc2cc(C(=O)C(C)C)cc3c(CCN4CCN(c5cc(C)ccn5)CC4)c(C)n1c23 (centres unmarked) 7

Look up and report measured inhibition at 1 µM for this entry: C=CCCC1CCc2cccc3c(CCN4CCN(c5cc(C)ccn5)CC4)c(C)n1c23 (centres unmarked) 13

Assign inhibition at 1 µM to the following record: Cc1ccnc(N2CCN(CCc3c(C)n4c5c(cc(NC(=O)C(C)C)cc35)CCC4)CC2)c1 9

Return reported inhibition at 1 µM. Input compound: Cc1ccnc(N2CCN(CCc3c(C)n4c5c(cccc35)CCCC4)CC2)c1 31

Return inhibition at 1 µM (reported value) for this compound: Cc1ccnc(N2CCN(CCc3c(C)n4c5c(cc(CC(C)C)cc35)CCC4)CC2)c1 9

Note down inhibition at 1 µM recorded for CC(C)=Cc1cc2c3c(c1)c(CCN1CCN(c4cc(C)ccn4)CC1)c(C)n3CCC2 15

Name the recorded inhibition at 1 µM of the compound listed here: Cc1ccnc(N2CCN(CCc3c(C)n4c5c(cccc35)[S+]([O-])CC4)CC2)c1 (centres unmarked) [Example 28a] 25

For the compound Cc1ccnc(N2CCN(CCc3c(C)n4c5c(cc(C(=O)c6ccccc6)cc35)CCC4)CC2)c1 , report inhibition at 1 µM. 10

State, in one line, measured inhibition at 1 µM of Cc1ccnc(N2CCN(CCc3c(C)n4c5c(cc([N+](=O)[O-])cc35)CCC4)CC2)c1 47

Indicate its recorded inhibition at 1 µM; the compound in question is Cc1ccnc(N2CCN(CCc3c(C)n4c5c(cc(C(=O)C6CCCCC6)cc35)CCC4)CC2)c1 12

Give the reported value of inhibition at 1 µM for this record: Cc1ccnc(N2CCN(CCc3c(C)n4c5c(ccc(C(=O)C(C)C)c35)SCC4)CC2)c1 16

Supply reported inhibition at 1 µM belonging to this compound: Cc1ccnc(N2CCN(CCc3c(C)n4c5c(cccc35)CCC4c3ccccc3)CC2)c1 (centres unmarked) 15

Identify measured inhibition at 1 µM associated with Cc1c(CCN2CCN(c3ccccn3)CC2)c2cccc3c2n1CCC3 24
